# TGT: hGIPR (Homo sapiens)
# Sequence (P48546 22-466): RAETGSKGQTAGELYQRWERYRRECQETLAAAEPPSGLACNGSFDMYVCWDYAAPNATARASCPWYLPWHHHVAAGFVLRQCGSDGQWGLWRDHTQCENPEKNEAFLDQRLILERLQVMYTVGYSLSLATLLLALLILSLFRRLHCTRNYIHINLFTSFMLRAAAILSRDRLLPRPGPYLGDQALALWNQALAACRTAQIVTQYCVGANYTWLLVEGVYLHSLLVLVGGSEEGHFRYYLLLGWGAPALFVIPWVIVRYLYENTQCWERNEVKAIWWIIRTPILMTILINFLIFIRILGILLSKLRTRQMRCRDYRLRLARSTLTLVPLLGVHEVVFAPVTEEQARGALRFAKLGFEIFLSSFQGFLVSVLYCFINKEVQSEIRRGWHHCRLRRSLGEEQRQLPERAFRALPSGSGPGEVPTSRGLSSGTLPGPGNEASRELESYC
# ASSAY METHOD TEXT: Functional cAMP activity in the presence of 1% HSA
# Format: cell-based
# EXPERIMENTAL PARAMETERS: read-out: cAMP Rel EC50, hGIPR
Starred links: 1 amine or outer side, 2 acyl side, 3 side chain; linkers in the order of their positions; H or OH if unused. Non-standard residues stand in square brackets, D forms with d. Groups on a side chain read outwards from the residue. No end group written: not given here. *: point of attachment. C20 diacid = O=C(O)CCCCCCCCCCCCCCCCCCC(=O)*; C18 diacid = O=C(O)CCCCCCCCCCCCCCCCC(=O)*; αMePhe(2-F) = C[C@](N)(Cc1ccccc1F)C(=O)O; γGlu = O=C(O)[C@H](CCC(=O)[*:2])N[*:1]; αMe4Pal = C[C@](N)(Cc1ccncc1)C(=O)O; αMeY = C[C@](N)(Cc1ccc(O)cc1)C(=O)O; 4Pal = N[C@@H](Cc1ccncc1)C(=O)O; αMeL = CC(C)C[C@](C)(N)C(=O)O; αMeS = C[C@](N)(CO)C(=O)O; Iva = CC[C@](C)(N)C(=O)O; Orn = NCCC[C@H](N)C(=O)O; AEEA = NCCOCCOCC(=O)O; Aib = CC(C)(N)C(=O)O
ENDPOINT LABEL: log10 EC50 (log10 of the value in nM)

>  <SUBSTANCE>
H-Y[Aib]QGTFTSD[4Pal]S[Orn][αMeL]LDKK([AEEA-γGlu-C18 diacid])AQ[Aib]AFIEYLLAGGPSSGEPPPSGS-NH2 [Example 154]

>  <log10 EC50>
1.47

$$$$
>  <SUBSTANCE>
Y[Aib]QGTFTSD[4Pal][αMeS]Q[αMeL]LD[Orn]K([dE-γGlu-C18 diacid])AQ[Iva]QFIQ[αMeY]LLE[Aib]GPSSGAPPPSGGGE-NH2 [Example 1139]

>  <log10 EC50>
0.46

$$$$
>  <SUBSTANCE>
H-Y[Aib]QGTFTSDFSK[αMeL]LDKK([AEEA-γGlu-C20 diacid])AQ[Aib]AFIEWLIEGGPSSGAPPPSEG-NH2 [Example 40]

>  <log10 EC50>
1.88

$$$$
>  <SUBSTANCE>
H-Y[Aib]QGT[αMePhe(2-F)]TSD[4Pal][αMeS]I[αMeL]LD[Orn]K([AEEA-γGlu-C18 diacid])AQ[αMe4Pal]EFI[dE][αMeY]LIEGGPPS[Aib][Orn]PPPEGE-NH2 [Example 1194]

>  <log10 EC50>
-0.12

$$$$
>  <SUBSTANCE>
Y[Aib]QGT[αMePhe(2-F)]TSD[4Pal][αMeS]I[αMeL]LD[Orn]K([AEEA-γGlu-C18 diacid])AQ[αMe4Pal]EFI[dE][αMeY]LIEGGPPS[Aib]EPPP[Orn]GE-NH2 [Example 1193]

>  <log10 EC50>
-0.10

$$$$
>  <SUBSTANCE>
Y[Aib]QGT[αMePhe(2-F)]TSD[4Pal]SI[αMeL]LD[Orn]K([AEEA-γGlu-C18 diacid])AQ[αMe4Pal][Orn]FI[dE][αMeY]LIEGGPSSGAPPPEGGGE-NH2 [Example 758]

>  <log10 EC50>
0.20

$$$$
